# target system: T1, Human CD3eg linker (human)
# T1 construct: single-chain construct; also called recombinant human CD3
# T1 chain: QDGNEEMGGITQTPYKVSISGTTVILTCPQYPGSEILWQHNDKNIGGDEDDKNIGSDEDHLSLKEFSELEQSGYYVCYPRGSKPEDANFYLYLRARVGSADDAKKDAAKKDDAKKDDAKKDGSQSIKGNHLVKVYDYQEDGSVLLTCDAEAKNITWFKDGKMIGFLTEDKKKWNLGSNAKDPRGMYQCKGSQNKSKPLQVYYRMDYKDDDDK
# assay explanation: SPR, vs unmutated H183/L072
value kind: fold change of affinity (fold)
The answer is to be given in fold; state only the numeric part.

Completed entries (count: 2):
dBBDu183H S62D/dBBDu072L (antibody, name in Kabat numbering, V domains shown) VH: QVQLVESGGGLVQPGRSLRLSCAASGFTFSNAWMHWVRQAPGKGLEWVAQIKDKGNAYAAYYAPDVKGRFTISRDDSKNSIYLQMNSLKTEDTAVYYCHYVHYASASTVLPAFGVDAWGQGTTVTVSS VL: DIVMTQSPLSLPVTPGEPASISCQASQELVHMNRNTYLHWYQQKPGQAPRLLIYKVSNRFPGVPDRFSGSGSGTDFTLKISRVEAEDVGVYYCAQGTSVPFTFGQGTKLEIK: 1.2
dBBDu183H F100gK/dBBDu072L (antibody, name in Kabat numbering, V domains shown) VH: QVQLVESGGGLVQPGRSLRLSCAASGFTFSNAWMHWVRQAPGKGLEWVAQIKDKGNAYAAYYAPSVKGRFTISRDDSKNSIYLQMNSLKTEDTAVYYCHYVHYASASTVLPAKGVDAWGQGTTVTVSS VL: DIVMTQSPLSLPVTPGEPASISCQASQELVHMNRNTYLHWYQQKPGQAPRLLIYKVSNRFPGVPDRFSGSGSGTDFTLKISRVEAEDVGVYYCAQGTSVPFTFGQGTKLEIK: 1.7

Query fold change of affinity for dBBDu183H V100cG/dBBDu072L (antibody, name in Kabat numbering, V domains shown) VH: QVQLVESGGGLVQPGRSLRLSCAASGFTFSNAWMHWVRQAPGKGLEWVAQIKDKGNAYAAYYAPSVKGRFTISRDDSKNSIYLQMNSLKTEDTAVYYCHYVHYASASTGLPAFGVDAWGQGTTVTVSS VL: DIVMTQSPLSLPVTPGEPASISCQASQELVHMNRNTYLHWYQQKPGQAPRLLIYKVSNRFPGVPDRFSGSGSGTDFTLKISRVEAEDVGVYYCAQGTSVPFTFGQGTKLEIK
1.5
